target: CSNK1D (Homo sapiens (Human), UniProt P48730)
ASSAY METRIC: pKd
pKd here is simply -log10 of the concentration when that concentration is written in mol/L.

Exercise: Fill in the blank: the reported pKd of CCN1CCN(c2nc3ccccc3nc2C(C#N)C(=O)OC2CCCCC2)CC1 (stereo not shown) [compound 1] is ____.
Key: 5.49

----------
Target: CSNK1A1 (Homo sapiens (Human))
Sequence (P48729 whole entry): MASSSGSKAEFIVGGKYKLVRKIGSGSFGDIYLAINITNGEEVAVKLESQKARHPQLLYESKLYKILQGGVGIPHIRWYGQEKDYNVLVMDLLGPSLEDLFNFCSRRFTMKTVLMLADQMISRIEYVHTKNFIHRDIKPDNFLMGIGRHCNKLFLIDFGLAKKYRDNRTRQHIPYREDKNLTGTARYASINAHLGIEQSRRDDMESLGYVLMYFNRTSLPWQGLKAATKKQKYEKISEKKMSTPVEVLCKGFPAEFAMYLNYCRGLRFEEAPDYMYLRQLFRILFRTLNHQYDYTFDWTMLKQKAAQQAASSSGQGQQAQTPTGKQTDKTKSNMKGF
Assay: Kinase enzymatic IC50 (Carna Biosciences mobility shift assay)
Type: biochemical
Details: known inhibitors, background text (rounded Table 1 values); read-out: IC50 against CSNK1A1
Method: Enzymatic assays were performed using a mobility shift assay on the LabChip system. Purified kinase protein was incubated with ATP, substrate, and assay buffer (20 mM Hepes—pH 7.5; 5 mM MgCl2, and 0.01% Triton X-100). The assay reaction was initiated with 5 μM ATP and with each compound present. […] AC50 values were determined using phosphorylated and unphosphorylated substrates.
ASSAY METRIC: IC50 (µM)
Record the value in µM, omitting the unit from your answer.

MOLECULE: Nc1ncnc2c1c(I)cn2[C@@H]1O[C@H](CO)[C@@H](O)[C@H]1O [5-iodotubercidin, reference compound]
ASSAY METRIC: IC50
RESULT VALUE: 0.29

Attention now turns to another entry.
Exercise: Fill in the blank: the reported IC50 of Nc1ncnc2c1c(COc1cccc(Cl)c1)nn2C1CCOCC1 [PF4800567, reference compound] is ____.
Key: 0.86

----------
target: GST-tagged full-length human CK1α (Homo sapiens (Human), UniProt P48729); experiment: Kinase enzymatic assay, mobility shift on LabChip system (AC50); type: biochemical; details: mean AC50; 5 μM ATP; 1 μM Profiler Pro FL-Peptide 16 substrate
Sequence (P48729 whole entry): as above
Lab note: cut-off is 2 µM. Strictly less in AC50 is Condition met. Exactly 2 µM or more is Condition not met.

Worked examples follow.
MOLECULE: CCC(CC)COC(=O)C(C#N)c1nc2ccccc2nc1N1CCN(C)CC1 (centres unmarked) [drawing 142]
ASSIGNED CATEGORY: Condition met

MOLECULE: CCC(CC)COC(=O)C(C#N)c1nc2ccccc2nc1N1CCNCC1 (centres unmarked) [drawing 149]
ASSIGNED CATEGORY: Condition met

MOLECULE: N#C/C(C(=O)OCC1CCCCC1)=C1/Nc2ccc(-c3ccccc3O)cc2N=C1N1CCNCC1
ASSIGNED CATEGORY: Condition met

MOLECULE: CCC(CC)COC(=O)C(C#N)c1nc2ccccc2nc1N1CCNC(c2ccccc2)C1 (centres unmarked)
ASSIGNED CATEGORY: Condition not met

Continue with the next molecule.
Exercise: Criterion: AC50 strictly below 2 µM. Is it met by N#CC(C(=O)OCC1CCCCC1)c1nc2ccccc2nc1N1CCNCC1 (centres unmarked) ?
Key: Condition met

----------
target: CSNK1A1 (Homo sapiens (Human)); assay: Kinase enzymatic IC50 (Carna Biosciences mobility shift assay); format: biochemical; settings: Table 1, CSNK1A1 inhibitors; read-out: IC50
ASSAY METRIC: IC50 (µM)
Record the value in µM, omitting the unit from your answer.

Below: 10 compounds and their reported IC50.
COMPOUND: N#CC(C(=O)OCc1ccc(F)cc1)c1nc2ccccc2nc1N1CCNCC1 (stereo not drawn)
MEASUREMENT UNIT: µM
IC50: 1.29
--
COMPOUND: Nc1ncnc2c1c(COc1cccc(Cl)c1)nn2C1CCOCC1 [PF4800567, reference compound]
MEASUREMENT UNIT: µM
IC50: 0.857
--
COMPOUND: CCC(CC)COC(=O)C(C#N)c1nc2ccccc2nc1N1CCN(C)CC1 (stereo not drawn)
MEASUREMENT UNIT: µM
IC50: 0.399
--
COMPOUND: CN1CCN(c2nc3ccccc3nc2C(C#N)C(=O)OC2CCCCC2)CC1 (stereo not drawn)
MEASUREMENT UNIT: µM
IC50: 3.18
--
COMPOUND: CCN1CCN(c2nc3ccccc3nc2C(C#N)C(=O)OC2CCCCC2)CC1 (stereo not drawn)
MEASUREMENT UNIT: µM
IC50: 12.9
--
COMPOUND: CN1CCN(c2nc3ccccc3nc2C(C#N)C(=O)OCC(C)(C)C)CC1 (stereo not drawn)
MEASUREMENT UNIT: µM
IC50: 0.715
--
COMPOUND: CC(C)(C)COC(=O)C(C#N)c1nc2ccccc2nc1N1CCNCC1 (stereo not drawn)
MEASUREMENT UNIT: µM
IC50: 0.21
--
COMPOUND: N#CC(C(=O)OCc1cccc(N)c1)c1nc2ccccc2nc1N1CCNCC1 (stereo not drawn)
MEASUREMENT UNIT: µM
IC50: 4.13
--
COMPOUND: Nc1ncnc2c1c(I)cn2[C@@H]1O[C@H](CO)[C@@H](O)[C@H]1O [5-iodotubercidin, reference compound]
MEASUREMENT UNIT: µM
IC50: 0.287
--
COMPOUND: CCC(CC)COC(=O)C(C#N)c1nc2ccccc2nc1N1CCNCC1 (stereo not drawn)
MEASUREMENT UNIT: µM
IC50: 0.094

Exercise: Fill in the blank: the reported IC50 of CCC(CC)COC(=O)C(C#N)c1nc2ccccc2nc1N1CCN(CC)CC1 (stereo not drawn) is ____.
Key: 5

Exercise: # repeat for N#CC(C(=O)OCc1cccc(F)c1)c1nc2ccccc2nc1N1CCNCC1 (stereo not drawn)
Key: 0.268

----------
Parameter AC50: see the listing below.
target: GST-tagged full-length human CK1α (Homo sapiens (Human), UniProt P48729); assay: Kinase enzymatic assay, mobility shift on LabChip system (AC50); type: biochemical; conditions: mean AC50; 5 μM ATP; 1 μM Profiler Pro FL-Peptide 16 substrate
Record the value in µM, omitting the unit from your answer.

Below: 4 compounds and their reported AC50.
COMPOUND: N#CC(C(=O)OCc1ccccc1F)c1nc2ccccc2nc1N1CCNCC1 (centres unmarked) [drawing 123]
TGT: GST-tagged full-length human CK1α (Homo sapiens (Human), UniProt P48729)
AC50 [µM]: 1.51
//
COMPOUND: CCC(CC)COC(=O)C(C#N)c1nc2ccccc2nc1N1CCNC(C(=O)OC)C1 (centres unmarked)
TGT: GST-tagged full-length human CK1α (Homo sapiens (Human), UniProt P48729)
AC50 [µM]: 3.15
//
COMPOUND: N#C/C(C(=O)OCC1CCCCC1)=C1/Nc2ccc(-c3ccc(O)cc3)cc2N=C1N1CCNCC1
TGT: GST-tagged full-length human CK1α (Homo sapiens (Human), UniProt P48729)
AC50 [µM]: 0.013
//
COMPOUND: CCC(CC)COC(=O)C(C#N)c1nc2ccccc2nc1N1CCNC(C)C1 (centres unmarked)
TGT: GST-tagged full-length human CK1α (Homo sapiens (Human), UniProt P48729)
AC50 [µM]: 0.434

Exercise: Fill in the blank: the reported AC50 of N#CC(C(=O)OCc1ccc(F)cc1)c1nc2ccccc2nc1N1CCNCC1 (centres unmarked) [drawing 129] is ____.
Key: 2.73

Exercise: # repeat for N#CC(C(=O)OCC1CCCCCC1)c1nc2ccccc2nc1N1CCNCC1 (centres unmarked)
Key: 0.355

Exercise: # repeat for N#CC(C(=O)OCc1ccc2ccccc2c1)c1nc2ccccc2nc1N1CCNCC1 (centres unmarked)
Key: 3.87

Exercise: # repeat for CNC1CCN(c2nc3ccccc3nc2C(C#N)C(=O)OCc2ccccc2)CC1 (centres unmarked) [drawing 147]
Key: 3.65

Exercise: # repeat for N#CC(C(=O)NCC1CCCCC1)c1nc2ccccc2nc1N1CCNCC1 (centres unmarked)
Key: 1.76

Exercise: # repeat for CCC(CC)COC(=O)C(C#N)c1nc2ccccc2nc1N1CCN[C@@H](C)C1 (some centres unmarked)
Key: 1.22

Exercise: # repeat for `N#C/C(C(=O)OCC1CCCCC1)=C1\C=C(N2CCNCC2)N=CN1`
Key: 3.78

Exercise: # repeat for CN1CCN(c2nc3ccccc3nc2C(C#N)C(=O)OCC(C)(C)C)CC1 (centres unmarked) [drawing 117]
Key: 0.822

Exercise: # repeat for `N#C/C(C(=O)OCC1CCCCC1)=C1/Nc2c(F)cccc2N=C1N1CCNCC1`
Key: 1.14

Exercise: # repeat for CCC(CC)COC(=O)C(C#N)c1nc2ccccc2nc1N1CCNC(CO)C1 (centres unmarked)
Key: 0.517

Exercise: # repeat for N#CC(C(=O)OCC1CCCCC1)c1nccnc1N1CCNCC1 (centres unmarked)
Key: 0.304

Exercise: # repeat for `N#C/C(C(=O)OCC1CCCCC1)=C1/Nc2ccc(F)cc2N=C1N1CCNCC1`
Key: 0.065

----------
Biological target: GST-tagged full-length human CK1α (Homo sapiens (Human), UniProt P48729)
Experiment: Kinase enzymatic assay, mobility shift on LabChip system (AC50)
Type: biochemical
Details: mean AC50; 5 μM ATP; 1 μM Profiler Pro FL-Peptide 16 substrate
Protocol: Enzymatic assays were performed using a mobility shift assay on the LabChip system. Purified kinase protein was incubated with ATP, substrate, and assay buffer (20 mM Hepes—pH 7.5; 5 mM MgCl2, and 0.01% Triton X-100). The assay reaction was initiated with 5 μM ATP and with each compound present. […] AC50 values were determined using phosphorylated and unphosphorylated substrates.
ASSAY METRIC: AC50 (µM)
Record the value in µM, omitting the unit from your answer.

Below: 8 compounds and their reported AC50.
COMPOUND: CCC(CC)COC(=O)C(C#N)c1nc2ccccc2nc1N1CCNC(Cc2ccccc2)C1 (centres unmarked)
AC50, µM: 1.27
//
COMPOUND: N#C/C(C(=O)OCC1CCCCC1)=C1/Nc2ccc(-c3ccccc3F)cc2N=C1N1CCNCC1
AC50, µM: 0.043
//
COMPOUND: N#C/C(C(=O)OCC1CCCCC1)=C1/Nc2ccc(-c3ccccc3)cc2N=C1N1CCNCC1
AC50, µM: 0.27
//
COMPOUND: N#C/C(C(=O)NCc1ccccc1)=C1/Nc2ccccc2N=C1N1CCNCC1
AC50, µM: 1.92
//
COMPOUND: N#C/C(C(=O)OCC1CCCCC1)=C1/Nc2cccc(F)c2N=C1N1CCNCC1
AC50, µM: 0.405
//
COMPOUND: CCC(CC)COC(=O)C(C#N)c1nc2ccccc2nc1N1CCNC(C)(C)C1 (centres unmarked)
AC50, µM: 0.159
//
COMPOUND: N#C/C(C(=O)OCC1CCCCC1)=C1/Nc2ccc([N+](=O)[O-])cc2N=C1N1CCNCC1
AC50, µM: 0.158
//
COMPOUND: N#C/C(C(=O)OCC1CCCCC1)=C1/Nc2ccc(-c3cccc(F)c3)cc2N=C1N1CCNCC1
AC50, µM: 0.108

Exercise: Fill in the blank: the reported AC50 of N#CC(C(=O)OCc1cccnc1)c1nc2ccccc2nc1N1CCNCC1 (centres unmarked) is ____.
Key: 0.95

Exercise: # repeat for CN1CCN(c2nc3ccccc3nc2C(C#N)C(=O)OC2CCCCC2)CC1 (centres unmarked) [drawing 113]
Key: 3.5
